test: in vitro; conditions: human, hela cells, % viability
Consider the following compounds; for each one, report its viability at 28.5 h, 10 µM.
Respond with the bare value in %.

Prompt: Endpoint output: viability at 28.5 h, 10 µM of `Cn1cc(NC(=O)c2ccc(CN3CCCC3=O)cc2)cn1` . Value?
Completion: 89.7

Prompt: Endpoint output: viability at 28.5 h, 10 µM of `CCN(CC)C(=O)c1ccccc1NS(=O)(=O)c1cc(Br)ccc1OC` . Value?
Completion: 89.6

Prompt: Endpoint output: viability at 28.5 h, 10 µM of O=C(O)CSC1c2ccccc2Oc2ccc(F)cc21 (stereo not shown) . Value?
Completion: 98

Prompt: Endpoint output: viability at 28.5 h, 10 µM of `NC(=O)CCNC(=O)N1CCc2ccccc2C1` . Value?
Completion: 104

Prompt: Endpoint output: viability at 28.5 h, 10 µM of Cc1ccc(C(=O)NC(C)c2nc3ccccc3n2Cc2ccc(C(=O)O)o2)cc1 (stereo not shown) . Value?
Completion: 107

Prompt: Endpoint output: viability at 28.5 h, 10 µM of `O=C(O)c1ccc2c(c1)C(=O)N(Cc1cccc(CN3C(=O)c4ccc(C(=O)O)cc4C3=O)c1)C2=O` . Value?
Completion: 113

Prompt: Endpoint output: viability at 28.5 h, 10 µM of `Cc1ccc(C(=O)N2CCC(CO)CC2)cc1C` . Value?
Completion: 93.8

Prompt: Endpoint output: viability at 28.5 h, 10 µM of `Cc1ccc(S(=O)(=O)NCCSc2ccccn2)cc1[N+](=O)[O-]` . Value?
Completion: 82.5

Prompt: Endpoint output: viability at 28.5 h, 10 µM of COC(=O)c1cc(C#N)c(=O)n(CC(O)COCc2ccco2)c1 (stereo not shown) . Value?
Completion: 94.7

Prompt: Endpoint output: viability at 28.5 h, 10 µM of FC(F)(F)c1ccc(CN2CCCC3(C2)NCCc2c3[nH]c3ccccc23)cc1 (stereo not shown) . Value?
Completion: 94.2

Prompt: Endpoint output: viability at 28.5 h, 10 µM of `O=C1CNC(=O)C2(C/C=C/C[C@H]3COCC[C@H]3N1)CCN(CCOc1ccccc1)CC2` . Value?
Completion: 107

Prompt: Endpoint output: viability at 28.5 h, 10 µM of `C=CCNc1nccnc1-c1ccc(O)cc1` . Value?
Completion: 99.6

Prompt: Endpoint output: viability at 28.5 h, 10 µM of `CCOC(=O)c1cnc2ccc(F)cc2c1NCCN(C)C` . Value?
Completion: 91.7

Prompt: Endpoint output: viability at 28.5 h, 10 µM of Cc1cc(C)nc(Nc2cccc(C3CCCN3C(=O)CCOc3ccccc3C)n2)n1 (stereo not shown) . Value?
Completion: 90.7

Prompt: Endpoint output: viability at 28.5 h, 10 µM of CN1C(=O)c2ccccc2C(O)C2(C)CN(Cc3ccccc3)CC12 (stereo not shown) . Value?
Completion: 108

Prompt: Endpoint output: viability at 28.5 h, 10 µM of `CNS(=O)(=O)CCNC(=O)N1CCCN(Cc2ccc(F)cc2)CC1` . Value?
Completion: 88.8

Prompt: Endpoint output: viability at 28.5 h, 10 µM of CN(C)CC(c1ccccc1)c1nnc2n1-c1ccc(S(C)(=O)=O)cc1C(c1ccccc1)=NC2 (stereo not shown) [CBK005856G] . Value?
Completion: 102

Prompt: Endpoint output: viability at 28.5 h, 10 µM of CC12CN3CC(C)(CN(C1)C3c1ccc(O)cc1)C2O (stereo not shown) . Value?
Completion: 107

Prompt: Endpoint output: viability at 28.5 h, 10 µM of `CN(CCCNC(=O)/C=N/O)CCCC(C)(C)C` . Value?
Completion: 110
